# experimental_protocol: in vitro
# Assay type: cell-based
# condition_label: human
measured_quantity: IC20 at 48 h

{"columns": ["line_notation", "measured_quantity", "result"],
 "data": [
  ["CCCCc1oc2ccccc2c1C(=O)c1cc(I)c(OCCN(CC)CC)c(I)c1", "IC20 at 48 h", "29.4 µM"]
]}

Ref: patent US20110190155A1
